- Target or system: T1, mouse MAdCAM expressed on cells (mouse, UniProt Q61826 22-405)
- T1 construct: whole, on cells
- T1 sequence (looked up): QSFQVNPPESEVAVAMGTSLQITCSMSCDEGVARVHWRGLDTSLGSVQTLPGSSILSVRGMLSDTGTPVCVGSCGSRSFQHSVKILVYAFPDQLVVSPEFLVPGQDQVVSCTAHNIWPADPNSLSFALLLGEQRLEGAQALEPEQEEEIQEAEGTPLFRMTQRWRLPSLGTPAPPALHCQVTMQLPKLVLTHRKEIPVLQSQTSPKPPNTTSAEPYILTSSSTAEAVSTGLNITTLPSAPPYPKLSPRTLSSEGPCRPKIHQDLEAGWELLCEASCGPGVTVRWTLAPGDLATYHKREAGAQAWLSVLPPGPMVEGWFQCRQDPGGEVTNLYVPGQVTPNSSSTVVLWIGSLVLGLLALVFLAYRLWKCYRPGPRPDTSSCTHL
- Protocol details: cell binding

- Binder: "MAdCAM antibody Table 1 clone 10 (scFv) scFv: QVQLVQSGAEVKKPGASVKVSCKASGYTLTTWYMYWVRQAPGQGLEWMGWINPNRGATNYAQKFQGRVTMTRDTSTSTVYMELSSLRSEDTAVYYCAKGDLWGAMDVWGQGTLVTVSSGGGGSGGGGSGGGGSGGGGSDIQMTQSPSSLSASVGDRVTITCRASDNIGSWLAWYQQKPGKAPKLLIYAASSLQSGVPSRFSGSGSGTDFTLTISSLQPEDFATYYCQQGYSTPPTFGQGTKVEIK"
  binding result: "no binding"
- Binder: "MAdCAM antibody Table 1 clone 27 (scFv) scFv: QVQLVQSGAEVKKPGASVKVSCKASGYTFTGYYIHWVRQAPGQGLEWMGWMNPNSGNTGYAQKFQGRVTMTRDTSTSTVYMELSSLRSEDTAVYYCARDPGFLGYCSGGSCYDGWFDPWGQGTLVTVSSGGGGSGGGGSGGGGSGGGGSDIQMTQSPSSLSASVGDRVTITCRASQSISSYLHWYQQKPGKAPKLLIYAASSLQSGVPSRFSGSGSGTDFTLTISSLQPEDFATYYCQQSYTAPYTFGQGTKLEIK"
  binding result: "no binding"
- Binder: "MAdCAM antibody Table 1 clone 1 (scFv) scFv: EVQLLESGGGLVQPGGSLRLSCAASGFTFSSYGMHWVRQAPGKGLEWVAVISDDGSDKYYADSVKGRFTISRDNSKNTLYLQMNSLRAEDTAVYYCTTSKYYYYYGMDVWGQGTTVTVSSGGGGSGGGGSGGGGSGGGGSDIQMTQSPSSLSASVGDRVTITCQASQDISKSLNWYQQKPGKAPKLLIYAASSLQSGVPSRFSGSGSGTDFTLTISSLQPEDFATYYCQQGYSTPLTFGGGTKVEIK"
  binding result: "binds"
